Attribution: ChEMBL document CHEMBL1152210

Tested on: Bursaphelenchus xylophilus
Test: Nematicidal activity against Bursaphelenchus xylophilus measured per cotton ball after 4 days by serial dilution method
Type: functional
Calls of active or inactive are those of the source. The rule behind the calls is not given here.

- smiles-data: "COc1cc(=O)oc2ccccc12"
  Activity: "inactive"
- smiles-data: "O=C(O)/C=C/c1ccccc1O"
  Activity: "inactive"
- smiles-data: "O=c1ccc2c(O)cccc2o1"
  Activity: "inactive"
- smiles-data: "C=CCOc1cccc2oc(=O)ccc12"
  Activity: "inactive"

---

As shown below, each of these compounds has a reported LC50 value.
System: Artemia salina
Test: Toxicity in Artemia salina after 24 hrs by serial dilution method
Format: organism-based
Settings: in vivo
observation-type: LC50

- smiles-data: "CCCCCCCCCc1cccc(O)c1"
  experimental-result: "0.6 ppm"
- smiles-data: "COc1ccc2oc(=O)ccc2c1"
  experimental-result: "> 80 ppm"
- smiles-data: "COc1cc(=O)oc2ccccc12"
  experimental-result: "60 ppm"
- smiles-data: "COc1cccc2ccc(=O)oc12"
  experimental-result: "> 80 ppm"
- smiles-data: "O=c1ccc2ccccc2o1"
  experimental-result: "> 80 ppm"
